Reference source: paper PMC6900016

Tested on: JIMT1
Experiment: cells
Set-up: Cell growth inhibition, sulforhodamine B total protein staining
Conditions: Homo sapiens, JIMT-1; 72 h growth; read-out: Cell growth inhibition IC50/µM
QUANTITY_NAME: IC50 (µM)
Give a bare numeral; the unit µM is implied.

Endpoint output: IC50 of CCOC(=O)Cn1c2c(c3ccccc31)C[C@@H]1C[C@H]2C(OC)CN1C(=O)c1cccnc1SC (single isomer, unassigned; (+)) [(+)-5a, Glupin] . Value? 0.113

---

Test system: OVCAR3
Experiment: cells
Parameters: Cell growth inhibition, sulforhodamine B total protein staining
Conditions: Homo sapiens, OVCAR-3; 72 h growth; read-out: Cell growth inhibition IC50/µM
QUANTITY_NAME: IC50

Endpoint output: IC50 of CCOC(=O)Cn1c2c(c3ccccc31)C[C@@H]1C[C@H]2C(OC)CN1C(=O)c1cccnc1SC (single isomer, unassigned; (+)) [(+)-5a, Glupin] . Value? > 30 µM

---

System: WSUNHL
Test: cells
Parameters: Cell growth inhibition, sulforhodamine B total protein staining
Settings: Homo sapiens, WSU-NHL; 72 h growth; read-out: Cell growth inhibition IC50/µM
QUANTITY_NAME: IC50 (µM)
Give a bare numeral; the unit µM is implied.

// fetch WSUNHL IC50 for CCOC(=O)Cn1c2c(c3ccccc31)C[C@@H]1C[C@H]2C(OC)CN1C(=O)c1cccnc1SC (single isomer, unassigned; (+)) [(+)-5a, Glupin] 0.062
